Read-out: Interleukin-8 (IL8), CXCL8 (gene 3576)
Assay: BSK_SAg_IL8: BioMAP Diversity Plus: SAg Assay for Interleukin-8 (IL8) Biomarker Activity (AID 2283094)
Details: primary human HUVEC with PBMC; actives raise or lower the signal
Active and inactive are the calls of the source. How the source made its calls: active means hit-call score of the fitted dose curve at least 0.9, where 1 is the maximum; inactive means score below 0.9.
Select the correct class. Options are active, inactive and nothing else.

Query: What is the recorded call for this compound in the test? CC(C)CCO
Response: inactive

Query: What did the test return for O=C(O)c1cccc(Oc2ccccc2)c1 ?
Response: inactive

Query: Hey, what did the test say about CC(=O)OC[C@H]1O[C@@](COC(C)=O)(O[C@H]2O[C@H](COC(C)=O)[C@@H](OC(C)=O)[C@H](OC(C)=O)[C@H]2OC(C)=O)[C@@H](OC(C)=O)[C@@H]1OC(C)=O ?
Response: inactive

Query: Each compound tested received a call. Report the one for CCc1cc(SCc2sc(-c3ccc(C(F)(F)F)cc3)nc2CN2CCN(c3ccc(OC)cc3)CC2)ccc1OCC(=O)O .
Response: active

Query: Record request — test call for O=C(NS(=O)(=O)/C=C/c1ccccc1)c1ccc(F)cc1Cl
Response: inactive

Query: Which outcome did this test record for the compound CCN(C(=O)c1cc(C)cc(OC[C@H](C)Nc2ccncc2)c1)C(C)C ?
Response: inactive

Query: Returns: the outcome recorded for C=CCCCCCCCCC(=O)O in this assay.
Response: inactive

Query: Kindly provide the recorded test outcome for the following compound: O=C1OC(=O)C2C3C=CC(C3)C12 (stereo unspecified)
Response: inactive

Query: Hi, sorry to bother you, what did the test record for On1ccccc1=S ?
Response: inactive

Query: Outcome logged for CC1(C)C(=O)N(Br)C(=O)N1Br in this assay:
Response: inactive

Query: // param item: O=c1[nH]c2ccc(S(=O)CCN3CCC(Cc4ccc(F)cc4)CC3)cc2o1 (stereo unspecified) ; yields the recorded call
Response: inactive

---

Read-out: Early growth response protein 1 (EGR1) transcription factor, EGR1 (gene 1958)
Experiment: LTEA_HepaRG_EGR1: Life Technologies and Expression Analysis (LTEA) Assay for Early growth response protein 1 (EGR1) transcription factor using HepaRG (AID 2283490)
Conditions: mRNA level, 48 h; actives raise or lower the signal
Calls of active or inactive are those of the source. Rule for the calls: active = hit-call score of the fitted dose curve at least 0.9, where 1 is the maximum; inactive = score below 0.9.
Allowed answers: Y (active), N (inactive)

Query: Hello, I am checking results. What call was entered for C=CCCCCCCCCC(=O)O ?
Response: N

Query: How was O=C1CCCCCN1 classified in this test?
Response: N

Query: // outcome(item) with item = O=C(OC[C@H]1O[C@@H](OC(=O)c2cc(O)c(O)c(OC(=O)c3cc(O)c(O)c(O)c3)c2)[C@H](OC(=O)c2cc(O)c(O)c(OC(=O)c3cc(O)c(O)c(O)c3)c2)[C@@H](OC(=O)c2cc(O)c(O)c(OC(=O)c3cc(O)c(O)c(O)c3)c2)[C@@H]1OC(=O)c1cc(O)c(O)c(OC(=O)c2cc(O)c(O)c(O)c2)c1)c1cc(O)c(O)c(OC(=O)c2cc(O)c(O)c(O)c2)c1
Response: N

Query: Field: outcome | Entry: O=C(NS(=O)(=O)/C=C/c1ccccc1)c1ccc(F)cc1Cl
Response: N

Query: Test call for this compound, please: CCC(C)(C)C(=O)O[C@H]1C[C@@H](C)C=C2C=C[C@H](C)[C@H](CC[C@@H]3C[C@@H](O)CC(=O)O3)[C@H]21
Response: N

Query: Given CCn1nc(Cc2ccccc2)cc1C1CCN(C[C@H]2C[C@H](N(C)[C@@H](C(=O)O)C(C)C)C[C@@H]2c2cccc(F)c2)CC1 , state the outcome it received in this test.
Response: N

Query: Please indicate how the test categorized CC1(C)C(=O)N(Br)C(=O)N1Br .
Response: N

Query: Fill in: this test's call for CNCc1ccc(NC(=O)c2c[nH]c3c2C(=O)CCC3)cc1 is ___
Response: N

Query: For O=C(O)c1cc(N=Nc2ccc(S(=O)(=O)Nc3ccccn3)cc2)ccc1O , which call appears in the assay record?
Response: N

Query: Which result was noted for this compound in the test: COC(=O)CC(=O)OC
Response: N

Query: What did this assay record as the result for Oc1ccc2c(c1)-c1ccccc1C2 ?
Response: N

Query: What did this assay record as the result for COC(=O)c1ccccc1O ?
Response: N

Query: Lab log entry: CCCC(=O)OCC — outcome as called in the assay?
Response: N

Query: I'd appreciate the recorded outcome for CC[C@H](C)C(=O)O[C@H]1C[C@@H](C)C=C2C=C[C@H](C)[C@H](CC[C@@H]3C[C@@H](O)CC(=O)O3)[C@H]21 from this test.
Response: N

Query: Which outcome was entered for the compound CC(O)CN(CCN(CC(C)O)CC(C)O)CC(C)O (configuration not stated) in this test?
Response: Y

Query: Tell me the recorded outcome of this test for Cc1[nH]cnc1C[C@H]1CCc2c(C)c3ccccc3n2C1=O .
Response: Y

Query: Record lookup: outcome of this test for Cc1ccc(S(=O)(=O)O)cc1C ?
Response: N

Query: Entry COc1cccc(-c2ccc(/C=C\CN3CCCCCC3)cc2Cl)c1 : call = ?
Response: Y

Query: So what was the verdict on Cc1ccc(O)cc1 in this test?
Response: N

Query: // param item: O=C(O)c1cccc(Oc2ccccc2)c1 ; yields the recorded call
Response: N

Query: What did the test return for CCCCC(CC)COC(=O)CCCCCCCCC(=O)OCC(CC)CCCC (configuration not stated) ?
Response: N

Query: Test call, this compound: CCOC(=O)c1ccc(C2CCC(NC[C@H](O)COc3ccc(O)c(NS(C)(=O)=O)c3)CC2)cc1 (some centres not stated)
Response: N

Query: Which outcome was entered for the compound C1=CCCC=CCCC=CCC1 in this test?
Response: N

Query: What outcome does the record of this test show for COc1ccc(-n2nc(C(F)F)cc2-c2ccc(S(C)=O)cc2)cc1 (configuration not stated) ?
Response: N

Query: So what was the verdict on CN(C)c1ccc(Cc2ccc(N(C)C)cc2)cc1 in this test?
Response: N

Query: // return assay outcome for CC(C)(O)c1coc(S(=O)(=O)NC(=O)Nc2c3c(cc4c2CCC4)CCC3)c1
Response: N

Query: I would be grateful if you could indicate the recorded call for CC(C)c1cccc(C(C)C)c1N1C(=O)c2ccc(O)cc2C1=O .
Response: Y

Query: What did the test return for Cc1c(-c2cccnc2)c2ccccc2n1CCCCC(=O)O ?
Response: N

Query: Test call for this compound, please: On1ccccc1=S
Response: N

Query: How did this test come out for CC(=O)c1ccc2c(c1)[C@H](NC(=O)c1ccc(F)cc1)[C@@H](O)C(C)(C)O2 ?
Response: N

Query: Recorded test outcome, item CCOC(=O)COc1ccc2c(c1)CC(NCC(O)c1cccc(Cl)c1)CC2 (configuration not stated)
Response: N

Query: Which outcome was assigned to O=C(O)c1cccc(N(Cc2cccnc2)c2ccc(OC(F)F)c(OC(F)F)c2)c1 in this test?
Response: Y

Query: Please state the recorded outcome for this compound: CC(C)=CCCC(C)=CC=O
Response: N

Query: // outcome(item) with item = Clc1nc(Cl)c(Cl)c(Cl)c1Cl
Response: N

Query: Which outcome was entered for the compound CC(C)CCCCCCOC(=O)c1ccc(C(=O)OCCCCCCC(C)C)c(C(=O)OCCCCCCC(C)C)c1 in this test?
Response: N

Query: Entry Cn1c(=O)c2c(ncn2C)n(C)c1=O : call = ?
Response: N

Query: Hi, do you know how O=c1n(CC2CO2)c(=O)n(CC2CO2)c(=O)n1CC1CO1 (configuration not stated) came out in this test?
Response: N

Origin of the recorded values: PubChem BioAssay (EPA / NIEHS)
